# Target Or Test System: Coagulation factor X (Homo sapiens)
# Sequence (P00742 41-179 limits assumed): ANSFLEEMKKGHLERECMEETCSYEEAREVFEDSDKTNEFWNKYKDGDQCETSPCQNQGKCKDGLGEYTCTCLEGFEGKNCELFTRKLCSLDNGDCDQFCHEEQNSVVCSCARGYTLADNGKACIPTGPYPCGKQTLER
# Sequence (P00742 235-488 limits assumed): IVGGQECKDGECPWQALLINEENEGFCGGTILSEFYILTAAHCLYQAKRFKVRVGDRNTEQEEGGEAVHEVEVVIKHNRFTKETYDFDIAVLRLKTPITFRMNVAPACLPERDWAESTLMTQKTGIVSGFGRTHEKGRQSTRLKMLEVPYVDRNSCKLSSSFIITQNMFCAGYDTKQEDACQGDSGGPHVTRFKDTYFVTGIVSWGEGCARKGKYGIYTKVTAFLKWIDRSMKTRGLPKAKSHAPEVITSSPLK
Metric: Ki

Form field - read-out: Ki; system: Coagulation factor X (Homo sapiens); submitted item: `CCCN1Cc2sc(C(=O)Nc3ccc(Cl)cc3C(=O)Nc3ccc(Cl)cc3)c(Cl)c2C1`
2.2 nM

Reference for the values: BindingDB's records for doi:10.1016/j.bmc.2006.12.019
